Test: Retention time of the compound using 0.1% TFA in water and 0.1% TFA in acetonitrile-water (80:20 v/v) as eluents by RP-HPLC analysis
Format: physicochemical
Where a SMILES comes first, the peptide text is derived from it. The star is where a group is joined. X1 = COc1cccc2c1C(=O)c1c(O)c3c(c(O)c1C2=O)C[C@@](O)(/C(C)=N/OCC(=O)*)C[C@@H]3O[C@H]1C[C@H](N)[C@H](O)[C@H](C)O1
attribute measured: Retention time

Using the record for COc1cccc2c1C(=O)c1c(O)c3c(c(O)c1C2=O)C[C@@](O)(/C(C)=N/OCC(=O)N[C@@H](CC(C)C)C(=O)N[C@@H](CCCNC(=N)N)C(=O)N[C@@H](CCCNC(=N)N)C(=O)N[C@@H](Cc1ccc(O)cc1)C(=O)N[C@@H](C)C(=O)N[C@@H](Cc1cnc[nH]1)C(=O)N[C@@H](CC(C)C)C(=O)NCC(=O)N[C@@H](Cc1ccc(O)cc1)C(=O)N[C@@H](C)C(=O)N[C@H](C(N)=O)[C@@H](C)O)C[C@@H]3O[C@H]1C[C@H](N)[C@H](O)[C@H](C)O1 (X1-LRRYAHLGYAT-NH2) , report its Retention time.
27.7 to 30.4 min

* * *

Assay: Stability in 2.5% fetal bovine serum containing medium at 30 uM measured after 24 hrs by LC/MS analysis
Format: ADME, cell-free, Bos taurus
Conditions: cattle
Where a SMILES comes first, the peptide text is derived from it. [ ]: non-standard residue; d: D form. The star is where a group is joined. X1 = COc1cccc2c1C(=O)c1c(O)c3c(c(O)c1C2=O)C[C@@](O)(/C(C)=N/OCC(=O)*)C[C@@H]3O[C@H]1C[C@H](N)[C@H](O)[C@H](C)O1; Phe(4-Cl) = N[C@@H](Cc1ccc(Cl)cc1)C(=O)O
attribute measured: Stability

Using the record for COc1cccc2c1C(=O)c1c(O)c3c(c(O)c1C2=O)C[C@@](O)(/C(C)=N/OCC(=O)N[C@@H](CC(C)C)C(=O)N[C@@H](CCCNC(=N)N)C(=O)N[C@@H](CCCNC(=N)N)C(=O)N[C@@H](Cc1ccc(O)cc1)C(=O)N[C@H](C(=O)N[C@@H](Cc1cnc[nH]1)C(=O)N[C@@H](CC(C)C)C(=O)N[C@@H](C)C(=O)N[C@@H](Cc1ccc(O)cc1)C(=O)N[C@@H](C)C(=O)N[C@H](C(N)=O)[C@@H](C)O)C(C)C)C[C@@H]3O[C@H]1C[C@H](N)[C@H](O)[C@H](C)O1 (X1-LRRYVHLAYAT-NH2) , report its Stability.
Stable

Using the record for COc1cccc2c1C(=O)c1c(O)c3c(c(O)c1C2=O)C[C@@](O)(/C(C)=N/OCC(=O)N[C@@H](CC(C)C)C(=O)N[C@@H](CCCNC(=N)N)C(=O)N[C@@H](CCCNC(=N)N)C(=O)N[C@@H](Cc1ccc(O)cc1)C(=O)N[C@H](C(=O)N[C@@H](Cc1cnc[nH]1)C(=O)N[C@@H](CC(C)C)C(=O)N[C@@H](Cc1ccc(Cl)cc1)C(=O)N[C@@H](Cc1ccc(O)cc1)C(=O)N[C@@H](C)C(=O)N[C@H](C(N)=O)[C@@H](C)O)C(C)C)C[C@@H]3O[C@H]1C[C@H](N)[C@H](O)[C@H](C)O1 (X1-LRRYVHL[Phe(4-Cl)]YAT-NH2) , report its Stability.
Stable

Using the record for COc1cccc2c1C(=O)c1c(O)c3c(c(O)c1C2=O)C[C@@](O)(/C(C)=N/OCC(=O)N[C@@H](CC(C)C)C(=O)N[C@@H](CCCNC(=N)N)C(=O)N[C@@H](CCCNC(=N)N)C(=O)N[C@@H](Cc1ccc(O)cc1)C(=O)N[C@H](C(=O)N[C@@H](Cc1cnc[nH]1)C(=O)N[C@@H](CC(C)C)C(=O)N[C@@H](Cc1ccccc1)C(=O)N[C@@H](Cc1ccc(O)cc1)C(=O)N[C@@H](C)C(=O)N[C@H](C(N)=O)[C@@H](C)O)C(C)C)C[C@@H]3O[C@H]1C[C@H](N)[C@H](O)[C@H](C)O1 (X1-LRRYVHLFYAT-NH2) , report its Stability.
Stable

* * *

Assay: Retention time of the compound using 0.1% TFA in water and 0.1% TFA in acetonitrile-water (80:20 v/v) as eluents by RP-HPLC analysis
Assay type: physicochemical
Where a SMILES comes first, the peptide text is derived from it. [ ]: non-standard residue; d: D form. The star is where a group is joined. X1 = COc1cccc2c1C(=O)c1c(O)c3c(c(O)c1C2=O)C[C@@](O)(/C(C)=N/OCC(=O)*)C[C@@H]3O[C@H]1C[C@H](N)[C@H](O)[C@H](C)O1; Phe(4-Cl) = N[C@@H](Cc1ccc(Cl)cc1)C(=O)O
attribute measured: Retention time

Using the record for COc1cccc2c1C(=O)c1c(O)c3c(c(O)c1C2=O)C[C@@](O)(/C(C)=N/OCC(=O)N[C@@H](CC(C)C)C(=O)N[C@@H](CCCNC(=N)N)C(=O)N[C@@H](CCCNC(=N)N)C(=O)N[C@@H](Cc1ccc(O)cc1)C(=O)N[C@H](C(=O)N[C@@H](Cc1cnc[nH]1)C(=O)N[C@@H](CC(C)C)C(=O)N[C@@H](Cc1ccc(Cl)cc1)C(=O)N[C@@H](Cc1ccc(O)cc1)C(=O)N[C@@H](C)C(=O)N[C@H](C(N)=O)[C@@H](C)O)C(C)C)C[C@@H]3O[C@H]1C[C@H](N)[C@H](O)[C@H](C)O1 (X1-LRRYVHL[Phe(4-Cl)]YAT-NH2) , report its Retention time.
31.3 to 34 min

Okay, now this molecule:
Using the record for COc1cccc2c1C(=O)c1c(O)c3c(c(O)c1C2=O)C[C@@](O)(/C(C)=N/OCC(=O)N[C@@H](CC(C)C)C(=O)N[C@@H](CCCNC(=N)N)C(=O)N[C@@H](CCCNC(=N)N)C(=O)N[C@@H](Cc1ccc(O)cc1)C(=O)N[C@H](C(=O)N[C@@H](Cc1cnc[nH]1)C(=O)N[C@@H](CC(C)C)C(=O)N1CCC[C@H]1C(=O)N[C@@H](Cc1ccc(O)cc1)C(=O)N[C@@H](C)C(=O)N[C@H](C(N)=O)[C@@H](C)O)C(C)C)C[C@@H]3O[C@H]1C[C@H](N)[C@H](O)[C@H](C)O1 (X1-LRRYVHLPYAT-NH2) , report its Retention time.
31.2 to 31.3 min

* * *

Tested on: HT-29
Assay: Cytostatic activity against human HT-29 cells preincubated for 24 hrs under serum free condition followed by compound washout and further incubation for 48 hrs in presence of serum by MTT assay
Format: functional, cell-based
Where a SMILES comes first, the peptide text is derived from it. [ ]: non-standard residue; d: D form. The star is where a group is joined. X1 = COc1cccc2c1C(=O)c1c(O)c3c(c(O)c1C2=O)C[C@@](O)(/C(C)=N/OCC(=O)*)C[C@@H]3O[C@H]1C[C@H](N)[C@H](O)[C@H](C)O1; Phe(4-Cl) = N[C@@H](Cc1ccc(Cl)cc1)C(=O)O
yes (1) if IC50 is below 20 µM. no (0) if not; exact matches included in no (0).

Completed entries (count: 2):
For COc1cccc2c1C(=O)c1c(O)c3c(c(O)c1C2=O)C[C@@](O)(/C(C)=N/OCC(=O)N[C@@H](CC(C)C)C(=O)N[C@@H](CCCNC(=N)N)C(=O)N[C@@H](CCCNC(=N)N)C(=O)N[C@@H](Cc1ccc(O)cc1)C(=O)N[C@H](C(=O)N[C@@H](Cc1cnc[nH]1)C(=O)N[C@@H](CC(C)C)C(=O)N[C@@H](Cc1ccc(Cl)cc1)C(=O)N[C@@H](Cc1ccc(O)cc1)C(=O)N[C@@H](C)C(=O)N[C@H](C(N)=O)[C@@H](C)O)C(C)C)C[C@@H]3O[C@H]1C[C@H](N)[C@H](O)[C@H](C)O1 (X1-LRRYVHL[Phe(4-Cl)]YAT-NH2) , is the recorded IC50 below the cut-off of 20 µM?
yes (1)

For COc1cccc2c1C(=O)c1c(O)c3c(c(O)c1C2=O)C[C@@](O)(/C(C)=N/OCC(=O)N[C@@H](CC(C)C)C(=O)N[C@@H](CCCNC(=N)N)C(=O)N[C@@H](CCCNC(=N)N)C(=O)N[C@@H](Cc1ccc(O)cc1)C(=O)N[C@H](C(=O)N[C@@H](C)C(=O)N[C@@H](CC(C)C)C(=O)NCC(=O)N[C@@H](Cc1ccc(O)cc1)C(=O)N[C@@H](C)C(=O)N[C@H](C(N)=O)[C@@H](C)O)C(C)C)C[C@@H]3O[C@H]1C[C@H](N)[C@H](O)[C@H](C)O1 (X1-LRRYVALGYAT-NH2) , is the recorded IC50 below the cut-off of 20 µM?
no (0)

Continuing:
For COc1cccc2c1C(=O)c1c(O)c3c(c(O)c1C2=O)C[C@@](O)(/C(C)=N/OCC(=O)N[C@@H](CC(C)C)C(=O)N[C@@H](CCCNC(=N)N)C(=O)N[C@@H](CCCNC(=N)N)C(=O)N[C@@H](Cc1ccc(O)cc1)C(=O)N[C@H](C(=O)N[C@@H](Cc1cnc[nH]1)C(=O)N[C@@H](CC(C)C)C(=O)N[C@@H](CCCCN)C(=O)N[C@@H](Cc1ccc(O)cc1)C(=O)N[C@@H](C)C(=O)N[C@H](C(N)=O)[C@@H](C)O)C(C)C)C[C@@H]3O[C@H]1C[C@H](N)[C@H](O)[C@H](C)O1 (X1-LRRYVHLKYAT-NH2) , is the recorded IC50 below the cut-off of 20 µM?
no (0)

For COc1cccc2c1C(=O)c1c(O)c3c(c(O)c1C2=O)C[C@@](O)(/C(C)=N/OCC(=O)N[C@@H](CC(C)C)C(=O)N[C@@H](CCCNC(=N)N)C(=O)N[C@@H](CCCNC(=N)N)C(=O)N[C@@H](Cc1ccc(O)cc1)C(=O)N[C@H](C(=O)N[C@@H](Cc1cnc[nH]1)C(=O)N[C@@H](CC(C)C)C(=O)N[C@@H](Cc1ccccc1)C(=O)N[C@@H](Cc1ccc(O)cc1)C(=O)N[C@@H](CCC(=O)O)C(=O)N[C@H](C(N)=O)[C@@H](C)O)C(C)C)C[C@@H]3O[C@H]1C[C@H](N)[C@H](O)[C@H](C)O1 (X1-LRRYVHLFYET-NH2) , is the recorded IC50 below the cut-off of 20 µM?
no (0)
